# test.target: T1, Recombinant Human FGFR2 alpha (IIIc) Fc Chimera Protein, CF (R&D systems, 712-FR-050) (human, UniProt P21802 22-377)
# T1 construct: bought; not shown: Fc part of the chimera
# T1 sequence (P21802 22-377, change not shown): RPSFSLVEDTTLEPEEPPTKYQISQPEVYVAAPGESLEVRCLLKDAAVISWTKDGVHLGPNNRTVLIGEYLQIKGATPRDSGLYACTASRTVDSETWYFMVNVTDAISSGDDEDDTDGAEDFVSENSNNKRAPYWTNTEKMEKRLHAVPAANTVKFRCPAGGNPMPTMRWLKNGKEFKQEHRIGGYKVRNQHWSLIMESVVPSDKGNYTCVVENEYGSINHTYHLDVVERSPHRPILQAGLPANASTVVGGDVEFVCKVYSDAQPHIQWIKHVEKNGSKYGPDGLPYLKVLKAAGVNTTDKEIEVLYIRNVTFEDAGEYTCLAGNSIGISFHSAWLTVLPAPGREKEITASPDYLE
# assay.procedure: ELISA on plate-bound FGFR2-Fc
Bridge positions count the residues as written; N and C are the ends. Ends that are not written are not given here. COCH2 = acetyl group that carries the bridge
value.type: ELISA luminescence signal at 10 nmol/L peptide, relative to SEQ ID NO: 47 (=1)

* YCEENYLDREQYQYFIYFK(COCH2)Y (thioether 2-19 (inferred)) [cyclic peptide SEQ ID NO: 234] | ≥ 0.7 ratio
* YCEENYLDQEQYQYFIYFK(COCH2)Y (thioether 2-19 (inferred)) [cyclic peptide SEQ ID NO: 229] | ≥ 0.7 ratio
* ECQENFVDRQQYWYFLSYK(COCH2)F (thioether 2-19) [cyclic peptide SEQ ID NO: 132] | ≥ 0.7 ratio
* YCEENYLDGEQYQYFIYFK(COCH2)Y (thioether 2-19 (inferred)) [cyclic peptide SEQ ID NO: 221] | ≥ 0.7 ratio
* YCEENYLDPEQYQNFIYFK(COCH2)Y (thioether 2-19 (inferred)) [cyclic peptide SEQ ID NO: 273] | 0.1 to 0.5 ratio
* YCEENYLDPEQYQYFITFK(COCH2)Y (thioether 2-19 (inferred)) [cyclic peptide SEQ ID NO: 301] | ≥ 0.7 ratio

# batch: return ELISA luminescence signal at 10 nmol/L peptide, relative to SEQ ID NO: 47 (=1) for each of the 6 binders below
1. YCEEQYLDPEQYQYFIYFK(COCH2)Y (thioether 2-19 (inferred)) [cyclic peptide SEQ ID NO: 183]
2. YCEENYLDPEQYQYFIYFK(COCH2)R (thioether 2-19 (inferred)) [cyclic peptide SEQ ID NO: 320]
3. YCEENYLDPAQYQYFIYFK(COCH2)Y (thioether 2-19 (inferred)) [cyclic peptide SEQ ID NO: 330]
4. YCRENYLDPEQYQYFIYFK(COCH2)Y (thioether 2-19) [cyclic peptide SEQ ID NO: 164]
5. YCPYNFYNIIQFHYFLTYK(COCH2)T (thioether 2-19) [cyclic peptide SEQ ID NO: 127]
6. YCEENYLDWEQYQYFIYFK(COCH2)Y (thioether 2-19 (inferred)) [cyclic peptide SEQ ID NO: 227]

["0.1 to 0.5 ratio", "≥ 0.7 ratio", "≥ 0.7 ratio", "≥ 0.7 ratio", "≥ 0.7 ratio", "≥ 0.7 ratio"]
